targetSystem: T1, LHD101 chainB
T1 construct: also called LHD101B
T1 chain: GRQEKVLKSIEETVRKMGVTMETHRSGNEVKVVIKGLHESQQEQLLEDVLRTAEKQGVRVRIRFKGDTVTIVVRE
experimentNotes: BLI, steady state fit
resultType: pKd
The meaning of pKd here: minus log10 of the concentration in molar units.

Task item: Returns the measured pKd for the input binder. Input: LHD101 chainA (designed binder, also called LHD101A) GRQEKVLKSIEETVRKMGVTMETHRSGNEVKVVIKGLHIKQQRQLYRDVRETSKKQGVETEIEVEGDTVTIVVRE
Reply: 8.02
